Origin of measurements: patent US4528296A

# TARGET OR TEST SYSTEM: enkephalinase (Rattus norvegicus, UniProt P07861)
# Construct: enzymatic preparation extracted from the particulate fraction of striata of rats; from tissue; host or cells: rat striatum, particulate fraction purified on discontinuous sucrose gradient
# Sequence (P07861 whole entry): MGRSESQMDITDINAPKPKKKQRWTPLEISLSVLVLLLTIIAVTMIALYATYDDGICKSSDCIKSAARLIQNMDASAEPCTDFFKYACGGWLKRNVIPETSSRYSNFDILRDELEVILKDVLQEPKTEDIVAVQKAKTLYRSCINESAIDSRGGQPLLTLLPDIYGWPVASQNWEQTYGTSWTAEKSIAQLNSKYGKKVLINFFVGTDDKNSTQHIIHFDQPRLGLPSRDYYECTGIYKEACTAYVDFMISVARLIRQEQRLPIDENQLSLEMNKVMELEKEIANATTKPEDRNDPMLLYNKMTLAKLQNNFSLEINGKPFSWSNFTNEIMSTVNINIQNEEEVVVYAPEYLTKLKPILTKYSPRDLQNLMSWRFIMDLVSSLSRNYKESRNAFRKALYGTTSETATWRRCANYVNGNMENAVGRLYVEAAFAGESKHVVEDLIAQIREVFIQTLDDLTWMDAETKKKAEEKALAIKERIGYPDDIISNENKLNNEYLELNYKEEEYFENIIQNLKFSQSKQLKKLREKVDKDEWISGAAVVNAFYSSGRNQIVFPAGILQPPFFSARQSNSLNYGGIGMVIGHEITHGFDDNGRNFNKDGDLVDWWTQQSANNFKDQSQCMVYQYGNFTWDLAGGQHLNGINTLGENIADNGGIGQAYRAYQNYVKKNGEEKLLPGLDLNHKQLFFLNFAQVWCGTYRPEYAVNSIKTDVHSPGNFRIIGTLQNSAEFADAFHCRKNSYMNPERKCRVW
# TEST PROTOCOL: Inhibition of enkephalinase, particulate fraction of rat striata, 3H-Tyr-Leucine-Enkephalin substrate
# Type: biochemical, rats
# EXPERIMENTAL PARAMETERS: read-out: Drug concentration which inhibits 50% of the enzymatic activities (IC50(M)), Enkephalinase
PROPERTY MEASURED: IC50 (M)
Answers are plain numbers, in M.

Known results for compounds:
COMPOUND | IC50 / M
CC(CS)C(=O)Nc1cncc(C(=O)O)c1 (centres unmarked) | 5e-08
C[C@H](CSC(=O)c1ccccc1)C(=O)Nc1cncc(C(=O)O)c1 [Example 18a] | 3e-07
CC(CS)C(=O)Nc1ccc(C(=O)O)cn1 (centres unmarked) | 5e-07
CC(CS)C(=O)Nc1cc(C(=O)O)ccn1 (centres unmarked) | 5e-07
O=C(O)c1ccnc(NC(=O)C(CS)Cc2ccccc2)c1 (centres unmarked) | 1.8e-09
CC(CS)C(=O)N(C)c1cncc(C(=O)O)c1 (centres unmarked) | 1e-07

# return IC50 for each item in the list
1. CC(CS)C(=O)Nc1ccc(C(=O)O)nc1 (centres unmarked)
2. COC(=O)c1cncc(N(C)C(=O)C(C)CSC(C)=O)c1 (centres unmarked)

Response given:
2e-07
7e-07

Record COC(=O)c1cncc(NC(=O)C(C)CS)c1 (centres unmarked) ; system enkephalinase (Rattus norvegicus, UniProt P07861); IC50 = 2e-07
